Biological target: SHV-5 (Klebsiella pneumoniae, UniProt P0A3M1)
Construct: made in house; host or cells: E. coli BL21(DE3)
Experiment: β-lactamase enzyme inhibition, SHV-5
Assay type: biochemical
Details: read-out: Class A SHV-5 IC50; substrate Cefotaxime, 260 nm
Kindly state IC50 for each of the entries shown.

- COMPOUND: "NC1CN(C2CCC(CC(=O)N[C@H]3Cc4cccc(C(=O)O)c4OB3O)CC2)C1 (some centres unmarked)"
  IC50: "< 100 nM"

Okay, here is my list. What is IC50 for each of these?
1. N=C(N)NC1CN(C2CCC(CC(=O)N[C@H]3Cc4cccc(C(=O)O)c4OB3O)CC2)C1 (some centres unmarked)
2. O=C(CC1CCC(O)CC1)N[C@H]1Cc2cccc(C(=O)O)c2OB1O (some centres unmarked)
3. O=C(CC1CCC(NC2CNC2)CC1)N[C@H]1Cc2cccc(C(=O)O)c2OB1O (some centres unmarked)

Completion:
1: < 100 nM; 2: < 100 nM; 3: < 100 nM

Reported IC50 for "N=C(N)N1CCN([C@H]2CC[C@H](CC(=O)N[C@H]3Cc4cccc(C(=O)O)c4OB3O)CC2)CC1" was < 100 nM

---

Biological target: UniProt:P13661
Assay: β-lactamase enzyme inhibition, OXA-1
Conditions: substrate Nitrocefin 100 μM, 486 nm; read-out: Class D OXA-1 IC50
MEASURED_ENDPOINT: IC50

These solved cases illustrate the format of a correct answer.
- COMPOUND: "O=C(C[C@H]1CC[C@H](NCC2CCNCC2)CC1)N[C@H]1Cc2cccc(C(=O)O)c2OB1O [Example 33]"
  RESULT: "< 100 nM"
- COMPOUND: "N=C(N)NC1CN(C2CCC(CC(=O)N[C@H]3Cc4cccc(C(=O)O)c4OB3O)CC2)C1 (stereo partly shown) [Example 41]"
  RESULT: "< 100 nM"
- COMPOUND: "O=C(C[C@H]1CC[C@H](NCCNCCO)CC1)N[C@H]1Cc2cccc(C(=O)O)c2OB1O [Example 61]"
  RESULT: "< 100 nM"
- COMPOUND: "NCCN[C@H]1CC[C@H](CC(=O)N[C@H]2Cc3cccc(C(=O)O)c3OB2O)CC1 [Example 15]"
  RESULT: "100 to 1000 nM"

Okay, here is my list. What is IC50 for each of these?
1. N[C@H](CO)CN[C@H]1CC[C@H](CC(=O)N[C@H]2Cc3cccc(C(=O)O)c3OB2O)CC1 [Example 67]
2. NCC1CCC(=CC(=O)N[C@H]2Cc3cccc(C(=O)O)c3OB2O)CC1 (stereo partly shown) [Example 11]

Completion:
1: < 100 nM; 2: 100 to 1000 nM

---

Kindly state IC50 for each of the entries shown.
Molecular target: VIM-2 (Escherichia coli)
Experiment: β-lactamase enzyme inhibition, VIM-2
Details: substrate Nitrocefin 100 μM, 486 nm; read-out: Class B VIM-2 IC50

These solved cases illustrate the format of a correct answer.
- MOLECULE: "N[C@H]1CC[C@H](C(=O)N[C@H]2Cc3cccc(C(=O)O)c3OB2O)CC1"
  IC50: "0.1 to 1 µM"
- MOLECULE: "NCC(N)[C@H]1CC[C@H](CC(=O)N[C@H]2Cc3cccc(C(=O)O)c3OB2O)CC1 (some centres unmarked)"
  IC50: "0.1 to 1 µM"
- MOLECULE: "NCC(=O)N[C@H]1CC[C@H](CC(=O)N[C@H]2Cc3cccc(C(=O)O)c3OB2O)CC1"
  IC50: "0.1 to 1 µM"
- MOLECULE: "NC1CCC(O)(CC(=O)N[C@H]2Cc3cccc(C(=O)O)c3OB2O)CC1 (some centres unmarked)"
  IC50: "1 to 10 µM"
- MOLECULE: "O=C(C[C@H]1CC[C@H](NCc2nccs2)CC1)N[C@H]1Cc2cccc(C(=O)O)c2OB1O"
  IC50: "1 to 10 µM"
- MOLECULE: "NCCCN[C@H]1CC[C@H](CC(=O)N[C@H]2Cc3cccc(C(=O)O)c3OB2O)CC1"
  IC50: "< 0.1 µM"
- MOLECULE: "O=C(CC1CCC(NC2CNC2)CC1)N[C@H]1Cc2cccc(C(=O)O)c2OB1O (some centres unmarked)"
  IC50: "1 to 10 µM"

Let's switch to this molecule now.
Reported IC50 for "NC[C@H]1CC[C@H](C(=O)N[C@H]2Cc3cccc(C(=O)O)c3OB2O)CC1" was 0.1 to 1 µM

---

Target: VIM-2 (Escherichia coli, UniProt Q5U7L7)
Assay: β-lactamase enzyme inhibition, VIM-2
Details: substrate Nitrocefin 100 μM, 486 nm; read-out: Class B VIM-2 IC50
Experimental: For Vim-2 metallo β-lactamase, the procedure was identical with the following exceptions, first the protein was not pH adjusted to pH 5 with 50 mM sodium acetate, second, the chromatography step was changed to a 5 ml Q sepharose anion exchange column pre-equilibrated with 50 mM Hepes pH 7.5, and elution of the protein was achieved by a linear gradient of NaCl (0-600 mM). […]
pIC50: −log10 of the molar value.
MEASURED_ENDPOINT: pIC50

- MOLECULE: "CN(C)CCN[C@H]1CC[C@H](CC(=O)N[C@H]2Cc3cccc(C(=O)O)c3OB2O)CC1"
  pIC50: "> 7.00"
- MOLECULE: "O=C(C[C@H]1CC[C@H](NCCNC2CCCC2)CC1)N[C@H]1Cc2cccc(C(=O)O)c2OB1O"
  pIC50: "> 7.00"
- MOLECULE: "O=C(C[C@H]1CC[C@H](NCCNCC2CC2)CC1)N[C@H]1Cc2cccc(C(=O)O)c2OB1O"
  pIC50: "> 7.00"
- MOLECULE: "N[C@H](CO)CN[C@H]1CC[C@H](CC(=O)N[C@H]2Cc3cccc(C(=O)O)c3OB2O)CC1"
  pIC50: "6.00 to 7.00"
- MOLECULE: "O=C(C[C@H]1CC[C@H](NCC2CCNCC2)CC1)N[C@H]1Cc2cccc(C(=O)O)c2OB1O"
  pIC50: "6.00 to 7.00"

Okay, here is my list. What is pIC50 for each of these?
1. N=C(N)NC1CN(C2CCC(CC(=O)N[C@H]3Cc4cccc(C(=O)O)c4OB3O)CC2)C1 (stereo partly shown)
2. CC(NC(=O)C1C[C@H](N)[C@@H](N)C1)C(=O)N[C@H]1Cc2cccc(C(=O)O)c2OB1O (stereo partly shown)
3. NCCC(N)[C@H]1CC[C@H](CC(=O)N[C@H]2Cc3cccc(C(=O)O)c3OB2O)CC1 (stereo partly shown)
4. N=C(N)N1CCC(CN[C@H]2CC[C@H](CC(=O)N[C@H]3Cc4cccc(C(=O)O)c4OB3O)CC2)CC1
5. NCCN[C@H]1CC[C@H](CC(=O)N[C@H]2Cc3cccc(C(=O)O)c3OB2O)CC1
6. CC(C)NCCN[C@H]1CC[C@H](CC(=O)N[C@H]2Cc3cccc(C(=O)O)c3OB2O)CC1
7. CS(=O)(=O)NCCN[C@H]1CC[C@H](CC(=O)N[C@H]2Cc3cccc(C(=O)O)c3OB2O)CC1
8. CN(C)CC(=O)NC[C@H]1CC[C@H](CC(=O)N[C@H]2Cc3cccc(C(=O)O)c3OB2O)CC1

Completion:
1. 6.00 to 7.00
2. 6.00 to 7.00
3. > 7.00
4. 6.00 to 7.00
5. > 7.00
6. > 7.00
7. 6.00 to 7.00
8. 5.00 to 6.00

Okay, here is my list. What is pIC50 for each of these?
1. N=C(N)NC[C@H]1CC[C@H](CC(=O)N[C@H]2Cc3cccc(C(=O)O)c3OB2O)CC1
2. O=C(C[C@H]1CC[C@H](NCCN(CC2CC2)CC2CC2)CC1)N[C@H]1Cc2cccc(C(=O)O)c2OB1O
3. O=C(CC1CCCCC1)N[C@H]1Cc2cccc(C(=O)O)c2OB1O

Completion:
1. 6.00 to 7.00
2. > 7.00
3. 5.00 to 6.00

---

Target: UniProt Q5U7L7
Experiment: β-lactamase enzyme inhibition, VIM-2
Conditions: substrate Nitrocefin 100 μM, 486 nm; read-out: Class B VIM-2 IC50
MEASURED_ENDPOINT: IC50

- COMPOUND_STRUCTURE: "O=C(C[C@H]1CC[C@H](N2CCNCC2)CC1)N[C@H]1Cc2cccc(C(=O)O)c2OB1O"
  IC50: "1000 to 10000 nM"
- COMPOUND_STRUCTURE: "CN(C)CCN(C)[C@H]1CC[C@H](CC(=O)N[C@H]2Cc3cccc(C(=O)O)c3OB2O)CC1"
  IC50: "100 to 1000 nM"
- COMPOUND_STRUCTURE: "NCCN[C@H]1CC[C@@H](CC(=O)N[C@H]2Cc3cccc(C(=O)O)c3OB2O)CC1"
  IC50: "100 to 1000 nM"

Okay, here is my list. What is IC50 for each of these?
1. N[C@@H](C(=O)N[C@H]1Cc2cccc(C(=O)O)c2OB1O)C1CCCCC1
2. N[C@@H](CO)CN[C@H]1CC[C@H](CC(=O)N[C@H]2Cc3cccc(C(=O)O)c3OB2O)CC1
3. N=CN[C@H]1CC[C@H](CC(=O)N[C@H]2Cc3cccc(C(=O)O)c3OB2O)CC1
4. NCCNC[C@H]1CC[C@H](CC(=O)N[C@H]2Cc3cccc(C(=O)O)c3OB2O)CC1
5. NCCN[C@H]1CC[C@H](CC(=O)N[C@@H]2Cc3cccc(C(=O)O)c3OB2O)CC1

Completion:
1000 to 10000 nM
< 100 nM
100 to 1000 nM
100 to 1000 nM
100 to 1000 nM
